Tested on: Vero E6
experimentalDetails: cell viability relative to DMSO; higher = less toxic
measurementParameters: 72 h; 100 nM
measureName: cell viability (%)
Quick reminder: number only, in %, skip the unit.

Known results for compounds:
C[C@H](Nc1ncnc2nc[nH]c12)c1cc2cccc(Cl)c2c(=O)n1-c1ccccc1 [duvelisib] :: 94.9
Cc1[nH]c(/C=C2\C(=O)Nc3ccc(S(=O)(=O)Cc4c(Cl)cccc4Cl)cc32)c(C)c1C(=O)N1CCC[C@@H]1CN1CCCC1 :: 101
Oc1cc2c(cc1O)C(c1ccccc1)CNCC2 (centres undefined) :: 103
O=C(Nc1cc(C(F)(F)F)cc(C(F)(F)F)c1)c1cnc(Cl)nc1C(F)(F)F :: 97.1
CCS(=O)(=O)N1CC(CC#N)(n2cc(-c3ncnc4[nH]ccc34)cn2)C1 [baricitinib] :: 102
NC(=O)c1ncn([C@@H]2O[C@H](CO)[C@@H](O)[C@H]2O)n1 [ribavirin] :: 98.5
CC(C)(C=O)Cc1cc(C(C)(C)C)c(O)c(C(C)(C)C)c1 :: 103
CCN(CC)C(=O)N[C@H]1C[C@@H]2c3cccc4[nH]cc(c34)C[C@H]2N(C)C1 [terguride] :: 104

Which cell viability is listed for CC(C)[C@@]1(NC(=O)[C@@H]2C[C@@H]3c4cccc5[nH]cc(c45)C[C@H]3N(C)C2)O[C@@]2(O)[C@@H]3CCCN3C(=O)[C@H](Cc3ccccc3)N2C1=O [dihydroergocristine] ?
102
